Every entry's value here was drawn from PubChem BioAssay.

Target: Neurogenic locus notch homolog protein 3 (Homo sapiens)
Assay: NOTCH3 binders on small-molecule microarray, primary screen, biochemical, 635/667 nm fluorescence (AID 1096)
Details: NOTCH3 binding, 635 nm fluorescence, higher = more signal
# if value of composite z-score reaches 0.3, tag yes; if it stays below, tag no

Could you please find out whether CCOC(=O)[C@H](Cc1ccccc1)NC(=O)CCC1CC(OC(=O)NCCc2ccc(F)cc2)CC2(CCCC(COC(=O)NCCCN3CCCC3=O)O2)O1 (stereo not given in full) has composite z-score that meets 0.3 or exceeds it?
yes

Dear colleague, could you confirm whether C[C@@H](c1ccccc1)N1C(=O)[C@H]2[C@H]3[C@H](O)[C@H](O)CC(=NO[C@@H]4O[C@H](CO)[C@@H](O)[C@H](O)[C@H]4O)[C@H]3CC[C@H]2C1=O has composite z-score at or above 0.3?
yes

Hi, just wondering whether O=C1C[C@@H](O)[C@@H](O)[C@@H]2[C@@H]3C(=O)N(Cc4ccccc4)C(=O)[C@@H]3CC[C@@H]12 shows composite z-score of 0.3 or higher.
yes

Does the molecule CO[C@H]1COC(=O)CC=C[C@H](C)[C@@H](OC)COC(=O)[C@@H](C)NC(=O)CC=C[C@@H]1C have recorded composite z-score that is 0.3 or more?
no

// inclusive: composite z-score at least 0.3? input: CC(C)CCN1CCc2nc(COc3ccccc3)c3c(c2C1)CO[C@@H](C)C3
no

Does Cc1cc2c(c(=O)o1)[C@@H](O)[C@H]1O[C@H]1C2=O have a reported composite z-score of at least 0.3?
yes

Item CCCNC(=O)OC[C@H]1O[C@H](CCON=Cc2ccc(C(=O)N3[C@H](c4ccc(C)cc4)[C@@H](C)CC[C@H]3C(=O)OC)cc2)C=C[C@@H]1Oc1ccc(OC)cc1 with composite z-score of 0.3 or above?
yes

Record CC(C)C[C@H](NC(=O)CCC1CC(OC(=O)NCc2cccc3ccccc23)CC2(CCCC(COC(=O)NCc3ccccc3)O2)O1)C(=O)NCC(c1ccccc1)c1ccccc1 (stereo not given in full) ; criterion: composite z-score no lower than 0.3. Met?
yes

Reported composite z-score reaches at least 0.3 for O=C(NN=C1C[C@@H](O)[C@@H](O)[C@@H]2[C@@H]3C(=O)N(C[C@@H]4CCCO4)C(=O)[C@@H]3CC[C@H]12)OCc1ccccc1 ?
no

Does the molecule CC[C@@H](c1ccccc1)n1c(=O)n2n(c1=O)[C@H]1[C@H](O)[C@@H]3O[C@@H]3C(=NOC[C@@H](O)COCc3ccco3)[C@H]1CC2 have recorded composite z-score that is 0.3 or more?
no

// inclusive: composite z-score at least 0.3? input: C=Cc1ccc([C@H]2N[C@H](C(=O)O)CC[C@@H]2C)cc1
yes

Textbook exercise: given the entry CC(CCN1CCCc2nc(C)c(C)cc21)=NOC(C)CN1CCCCc2nc(C)c(C)cc21 (stereo not given) , state whether its composite z-score is greater than or equal to 0.3.
yes

hey, is composite z-score for this one >= 0.3? CC=CC1=C(CO)C(=O)[C@@H]2O[C@@H]2C1=O
yes

Determine whether measured composite z-score meets or exceeds 0.3 for CCOC(=O)[C@H](Cc1ccccc1)NC(=O)CCC1CC(OC(=O)NCc2cccc3ccccc23)CC2(CCCC(COC(=O)NCCC(C)C)O2)O1 (stereo not given in full)
no
